The reported measurements were obtained from the supplement of paper PMC6555819.

Can you tell me PBM binding z-score for the items I'm about to list?
- Tested on: PPARg:RXRa 270nM:90nM, anti-RXR (NR concentration 270 nM, RXRa partner concentration 90 nM)
- ASSAY METHOD TEXT: PBM binding z-score (relative to random genomic background probes); higher = stronger binding; sequences stand for … in GC…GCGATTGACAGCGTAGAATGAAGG
Give only the figure.

response.value for `CGAACTAGGTCAACGGACAGTGAAAGGCGACGTA` (field: PBM binding z-score) = 6.86

response.value for `GATACAGAGTCAGCTAGAGGCCAGAGTATGGAAA` (field: PBM binding z-score) = -0.242

response.value for `CAAACTAGGTCACAGAGGTCAAAGTTCGTGCGTA` (field: PBM binding z-score) = 8.37

response.value for `CGAACTAGGTCATCGAGGACAGTGAATACATTGA` (field: PBM binding z-score) = 6.42

response.value for `TAGCCTAGGTCATGGGCCTGTATACCACGCGAAC` (field: PBM binding z-score) = 3.29

response.value for `TCGAGTAGGTGACGGGGGCATTCAGGGATGAAGA` (field: PBM binding z-score) = 5.26

response.value for `GCTGCTCGGTCAACTGATGGTCAGCTAAAGCTCG` (field: PBM binding z-score) = -0.239

response.value for `AGTCAGAGTTCATCTAGGTAACGTAAGATATGCT` (field: PBM binding z-score) = 4.21

response.value for `CCTAGTTGGCCAAGGTCACACACGCTATAGGTAC` (field: PBM binding z-score) = 2.88

response.value for `CGAACTAGGTCACCAGGACAGTGATGAGGTTGGA` (field: PBM binding z-score) = 6.62

response.value for `AGTCAAAGTTCAGGACGAGATAACGTAAAGCACG` (field: PBM binding z-score) = 4.8

response.value for `CCTACTGGGCCATTCAGAGGACATTGATCATATG` (field: PBM binding z-score) = 0.44

response.value for `CTCGAAAGGTCGTGCTCAGGTGAGTATGCCAAAC` (field: PBM binding z-score) = 3.95

response.value for `TAGCCTAGGTCATTCAGGGGTCAGTATAGAAAGC` (field: PBM binding z-score) = 4.56

response.value for `ACTCGGAGGACAAACGTCAGAGCTACGCCAGTGA` (field: PBM binding z-score) = 0.765

response.value for `TCGAGTAAGTTACGGGGGCATTCAGGGATGAAGA` (field: PBM binding z-score) = 1.98

response.value for `GGAACTAGGGCAAAGTTGATAGCATCTGTCGACG` (field: PBM binding z-score) = 8.84

response.value for `TAGCCTAGGTCATGCGGGCCAGCATAGTGTCGGC` (field: PBM binding z-score) = 2.55

response.value for `ATATGTAGGTTAGGGGCATTCAGAAAGTAGGGAA` (field: PBM binding z-score) = 5.21

response.value for `CAAACTAGGTCAAGGTCAAATTCGGTTTGTGCCA` (field: PBM binding z-score) = 7.8

response.value for `CAAACTAGGTCAAAGGTCAAAATCGAGCCAACCA` (field: PBM binding z-score) = 11.8

response.value for `TGAATGAGGTTTAAGATCAGGGAACGTGGCGTCG` (field: PBM binding z-score) = 1.49

response.value for `ATATGTAGGTTACGTCCGGGTCATTCAGGCTATG` (field: PBM binding z-score) = 5.24

response.value for `CGAACTAGGTCAAAGGACAGTGACAGGCGACGTA` (field: PBM binding z-score) = 8.72

response.value for `TGGAGTAGGTTACGGGGGCATTCAGGGATGAAGA` (field: PBM binding z-score) = 6.49

response.value for `CGAACTAGGTCAATGGACAGTGAAAGGCGACGTA` (field: PBM binding z-score) = 6.17

response.value for `CAACCTAGGTCACGAAAGGTCAAAGTCGAATGAC` (field: PBM binding z-score) = 7.32

response.value for `AGTCAAAGTTCAGGACGAGGTCACGTAAAGCACG` (field: PBM binding z-score) = 6.26

response.value for `CAGCCTAGTTCAGGGCCAGTATAGGAGGAACGTT` (field: PBM binding z-score) = -0.6

response.value for `CAAACTAGGTCACAGGGGTCAAAGTCCGTGCGTA` (field: PBM binding z-score) = 8.74

response.value for `ATATGGAGGTTAGCTGGGGTCATTCAGACTAGGC` (field: PBM binding z-score) = 3.77

response.value for `TGGCCTAGGTCATGCGGGCCAGTATAGTGTCGGC` (field: PBM binding z-score) = 2.2

response.value for `TCGAGTAGGTTACGGAGGCATTCAGGGATGAAGA` (field: PBM binding z-score) = 1.81

response.value for `AGTCAAATTTCACTAGGTAACGTAAGATTCAGCT` (field: PBM binding z-score) = 0.334

response.value for `CGAACTAGGACAAAGGACAGTGAAAGGCGACGTA` (field: PBM binding z-score) = 5.78

response.value for `CCTTGCGGGTCACTGACAGGTTATAGCATTTGGA` (field: PBM binding z-score) = 4.76

response.value for `CGAACTAGGTCAAAGGACAGGGAAAGGCGACGTA` (field: PBM binding z-score) = 8.79

response.value for `CTATGCAGGTTAAGGGGGTCATTCAGTTTGAAAG` (field: PBM binding z-score) = 6.3

====

- System: THRa homodimer (NR concentration 90 nM)
- ASSAY METHOD TEXT: PBM binding z-score (relative to random genomic background probes); higher = stronger binding; sequences stand for … in GC…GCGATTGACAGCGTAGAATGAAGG
Can you tell me PBM binding z-score for the items I'm about to list?
Give only the figure.

response.value for `TTATCAAGGTGAAAGGTCGTTGATGCACGCCTTG` (field: PBM binding z-score) = 1.19

response.value for `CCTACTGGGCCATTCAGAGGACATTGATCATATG` (field: PBM binding z-score) = 0.238

response.value for `GCTAGTGGGTCAGTAAAAGGTCACACACCGGTCG` (field: PBM binding z-score) = 1.66

response.value for `CGAACTAGGTCAGCAGGACAGTGAAGAGGTTGGA` (field: PBM binding z-score) = 0.264

response.value for `TCGAGTATGTTACGGGGGCATTCAGGGATGAAGA` (field: PBM binding z-score) = 1.12

response.value for `CGAACTAGGTCACCCGGACAGTGAAGAGGTTGGA` (field: PBM binding z-score) = 1.47

response.value for `ATATGTAGGTTAGGGCCATTCAGAAAGTAGGGAA` (field: PBM binding z-score) = 0.811

response.value for `AGTCAAAGTTCACTAGGTTACGTAAGATTCAGCT` (field: PBM binding z-score) = 0.508

response.value for `GCTCGGAGGACAAGGTCAGGGCTTTGTCCGTAGA` (field: PBM binding z-score) = 1.75

response.value for `TCGAGTAGGTTACGGGGGCAGTCAGGGATGAAGA` (field: PBM binding z-score) = 1

response.value for `TCGAGTAGGTTACAGGGGCATTCAGGGATGAAGA` (field: PBM binding z-score) = 0.735

response.value for `ACTAGCAGGCCAAGAGTCACTCAAGATTAGTCCG` (field: PBM binding z-score) = -0.533

response.value for `CGTCGAAGGTCAATGCTAGGTCAGTGAAAGCATT` (field: PBM binding z-score) = 1.03

response.value for `GATACAGGGTCAGCTTGAGGCCAGAGTATGGAAA` (field: PBM binding z-score) = 0.959

response.value for `TCTAGTAGGTTACGGGGGCATTCAGGGATGAAGA` (field: PBM binding z-score) = 2.2

response.value for `CGTCCGAGGTCAAAGGTCAGTGAAGAGATGACGG` (field: PBM binding z-score) = 2.7

response.value for `CCTAGTTGGTCAGGAAGTCACACACCGGATATGA` (field: PBM binding z-score) = 0.522

response.value for `CCTCCAAGGTCATAGGAGGTCAGTGAAGACAGAT` (field: PBM binding z-score) = 3.1

response.value for `CCTAGTAGGTTATGGGGCATTCAGGCAACGGTGA` (field: PBM binding z-score) = 0.289

response.value for `GATTCAGGGTCAGCTAGAGGCCAGAGTATGGAAA` (field: PBM binding z-score) = 1.01

response.value for `CTATGTAGGTTAAGGGGGTCATTGAGTTTGAAAG` (field: PBM binding z-score) = 2.02

response.value for `CTATGTAGGTTAATGGGGTCATTCAGTTTGAAAG` (field: PBM binding z-score) = 3.09

response.value for `ATAGGTAGGTTAGGGTCATTCAGAAAGTAGGGAA` (field: PBM binding z-score) = 3.77

response.value for `GATACAGGGTCAGCTAGAGGGCAGAGTATGGAAA` (field: PBM binding z-score) = 1.05

response.value for `GATACAGGGTCAGCTAGAGGTCAGAGTATGGAAA` (field: PBM binding z-score) = 1.85

response.value for `TCATATAGGTGAAAGGTGAAAGTCGGTGTGGTAA` (field: PBM binding z-score) = 0.384

response.value for `CGAACTAGGTCACCAGGACAGTGTAGAGGTTGGA` (field: PBM binding z-score) = 2.14

response.value for `CTATGTAGGTTAAAGGGGTCATTCAGTTTGAAAG` (field: PBM binding z-score) = 1.29

response.value for `AGTCAAAGTTCACGACGAGGTAACGTAAAGCACG` (field: PBM binding z-score) = 1.36

response.value for `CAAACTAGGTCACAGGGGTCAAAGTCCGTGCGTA` (field: PBM binding z-score) = 3

response.value for `TCGATTAGGTTACGGGGGCATTCAGGGATGAAGA` (field: PBM binding z-score) = 2.54

response.value for `CGAACTAGGTCACCAGGAGAGTGAAGAGGTTGGA` (field: PBM binding z-score) = 1.09

response.value for `TCATATAGGTCAAAGGTGAAAGTCGGTGTGGTAA` (field: PBM binding z-score) = 0.997

response.value for `CCGAGTAGGTAACGAGGGGGCATTCAGTGCGAAT` (field: PBM binding z-score) = 0.519

response.value for `CGAACTAGGTCAAAGGACACTGAAAGGCGACGTA` (field: PBM binding z-score) = 0.861

response.value for `ACTAGTAGGTCAGCTGAGGTCACACACAATTCGG` (field: PBM binding z-score) = 5.63

response.value for `GCTGCTAGGTCAACTGATGGTGAGCTAAAGCTCG` (field: PBM binding z-score) = 0.689

response.value for `CCTAGTTGGTCAGGGGGTCACACACCGGATATGA` (field: PBM binding z-score) = 2.28

response.value for `CTATGTATGTTAAGGGGGTCATTCAGTTTGAAAG` (field: PBM binding z-score) = 2.88

response.value for `ATATGTAGCTTAAGGGTCATTCAGGTTGGTTCGC` (field: PBM binding z-score) = 1.02

response.value for `TCGAGTAGGTTACGGGGGCATCCAGGGATGAAGA` (field: PBM binding z-score) = 1.12
